B1: ZNF449 (parent)
chain: CTHCSKSFRQRAGLIMHQVTHFRG

- Variants of: B1
- TEST: protein stability index of a GFP-peptide fusion (GPS, HEK-293T) (PSI 1-6); higher = more stable;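 note: lentivirally expressed fusions sorted by FACS into six bins by GFP to DsRed ratio, PSI derived from sequencing read proportions per bin multiplied by bin number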
- REPORTED CONDITIONS: c terminus: a fixed tail appended
Please map values of protein stability index to classes as shown: I: < 2; II: ≥ 2 and < 3; III: ≥ 3

Lookup: Lab note: which band did S7L land in?
Found: II

Lookup: # classify by protein stability index band: I15Q
Found: II

Lookup: Category of C1E , please.
Found: I
